Source: patent US20260258115A1

Provide the reported Kd of each item.
# TESTED_TARGET: RSV prefusion F (preF), subtype B (respiratory syncytial virus, subtype B)
# ASSAY_SUMMARY: BLI, IgG
Answer format: value, then unit.

BINDER	Kd
ADI-14605 (antibody, V domains shown) VH: EVQLLESGPALVKPTQTLTLTCTFSGFSLTTSGMCVSWIRQPPGKALEWLARIDWDDDQYFSTSLRTRLSISKDTSKNQVVLTMTNMDPVDTATYYCARSALNIAARGFDIWGQGTTVTVSS VL: QPGLTQPPSVSVSPGQTARITCSGDVLPKHFSYWYQQKPGQAPVLVIHRDSERPSGIPERFSGSSSGTTVTLTISGVQAEDEADYYCQFSDITNTVFGGGTKLTVL	2.72 nM

Now consider a different binder.
# Kd lookup, item ADI-14410 (antibody, V domains shown, also called Ab 76) VH: QVQLQQWGAGLLKPSETLSLTCAIYSGSFSGYYWSWIRQPPGKGLEWIGQINYSGSAYYTPSLKSRVTISVDTSKNQFSLKLSSVTAADTAVYYCARVRITMVQGAIVPCAIDVWGQGTTVTVSS VL: SYELTQPPSASGTPGQRVTISCSGSSSNIESNFVYWYQQLPGTAPKLLIHRNDQRPSGVPDRFSGSKSGTSASLAISGLRSEDEADYSCAAWDDSLSGVVFGGGTKVTVL
17.1 nM
